test system: MDA-N; experiment: NCI tumour cell line growth inhibition, 48 h
Activity calls are given as the source filed them. Cut-off read from the data, not from the text of the source: active = GI50 up to about 1.1 µM and inactive = higher.
A correct response names exactly one class from T = active, F = inactive

Some solved entries appear below for comparison.
molecule: COc1cc(C2S/C(=C/c3ccccc3)C(=O)N2c2cccc([N+](=O)[O-])c2)cc(OC)c1OC (stereo not given)
system name: MDA-N
label value: F

molecule: CC1OC(Oc2c(-c3cc(O)c(O)c(O)c3)oc3cc(O)cc(O)c3c2=O)C(O)C(O)C1O (stereo not given)
system name: MDA-N
label value: F

Check the results log: what was the call for CCSC(=O)N1c2ccc(OC)cc2C=CC1C#N (stereo not given) ?
T

Can you handle `C[C@@H]1CCC([C@@H](C)[C@H]2CC[C@H]3[C@@H]4CC[C@H]5C[C@@H](O)CC[C@]5(C)[C@H]4CC[C@]23C)=NC1` next?
F

Can you handle COC1CC(C)(N)C(O)C(C)O1 (stereo not given) next?
F

Can you handle CC1CN1C(=O)NCCCCCCNC(=O)N1CC1C (stereo not given) next?
F

Can you handle `COc1cc([C@H]2OC[C@H]3[C@@H]2CO[C@@H]3c2cc(OC)c3c(c2)OCO3)cc(OC)c1OC` next?
F

Can you handle `Cc1n[nH]c(=O)n1/N=C/c1cccc(Cl)c1` next?
F

Can you handle `O=C1/C(=C/c2ccccc2)CN(C(=O)OCc2ccccc2)C/C1=C\c1ccccc1` next?
F

Can you handle `Oc1c(O)c(Cc2ccccc2)c(Cc2ccccc2)c(Cc2ccccc2)c1Cc1ccccc1` next?
F

Can you handle `CC(=O)Oc1c(OC(C)C)cc(=O)n2ccsc12` next?
F

Can you handle CCOC(=O)C1(C/C=C\CBr)CCCCCCCCCCC1=O (stereo not given) next?
F

Can you handle `CCN(C(=O)N[C@@H](C)C(=O)N[C@@H](Cc1ccccc1)C(=O)OC)c1ccccc1` next?
F

Can you handle `Cc1c(C#N)c2nnn(-c3ccc(Cl)cc3)c(=O)n2c1-c1ccccc1` next?
T
